# Test system: Staphylococcus aureus
# Run description: Antibacterial activity against Staphylococcus aureus ATCC 25923 assessed as reduction in bacterial growth incubated for 18 hrs by Mueller-Hinton Broth based microdilution assay
# Assay type: functional
Square brackets hold non-standard residues; d marks the D form. Peptide text beside a SMILES is read from it. NMeI = CC[C@H](C)[C@H](NC)C(=O)O; NMeL = CN[C@@H](CC(C)C)C(=O)O; NMeK = CN[C@@H](CCCCN)C(=O)O
Recorded metric: MIC

Compound	Recorded metric	Observed measurement
CC[C@H](C)[C@@H](C(=O)N[C@@H](CCCCN)C(=O)N[C@H](C(=O)N[C@@H](CC(C)C)C(=O)N[C@@H](CC(C)C)C(N)=O)[C@@H](C)O)N(C)C(=O)[C@H](CCCNC(=N)N)NC(=O)[C@H](CCCCN)NC(=O)[C@H](CC(C)C)N(C)C(=O)[C@H](CC(C)C)NC(=O)CN (H-GL[NMeL]KR[NMeI]KTLL-NH2)	MIC	> 128 µM
CC[C@H](C)[C@H](NC(=O)[C@H](CCCNC(=N)N)NC(=O)[C@H](CCCCN)N(C)C(=O)[C@H](CC(C)C)NC(=O)[C@H](CC(C)C)NC(=O)CN)C(=O)N(C)[C@@H](CCCCN)C(=O)N[C@H](C(=O)N[C@@H](CC(C)C)C(=O)N[C@@H](CC(C)C)C(N)=O)[C@@H](C)O (H-GLL[NMeK]RI[NMeK]TLL-NH2)	MIC	> 128 µM
CC[C@H](C)[C@H](NC(=O)[C@H](CCCNC(=N)N)NC(=O)[C@H](CCCCN)N(C)C(=O)[C@H](CC(C)C)NC(=O)[C@H](CC(C)C)NC(=O)CN)C(=O)N[C@@H](CCCCN)C(=O)N[C@H](C(=O)N[C@@H](CC(C)C)C(=O)N[C@@H](CC(C)C)C(N)=O)[C@@H](C)O (H-GLL[NMeK]RIKTLL-NH2)	MIC	> 128 µM
CC[C@H](C)[C@H](NC(=O)[C@H](CCCNC(=N)N)NC(=O)[C@H](CCCCN)NC(=O)[C@H](CC(C)C)N(C)C(=O)[C@H](CC(C)C)NC(=O)CN)C(=O)N[C@@H](CCCCN)C(=O)N[C@H](C(=O)N(C)[C@@H](CC(C)C)C(=O)N[C@@H](CC(C)C)C(N)=O)[C@@H](C)O (H-GL[NMeL]KRIKT[NMeL]L-NH2)	MIC	> 128 µM
CC[C@H](C)[C@@H](C(=O)N[C@@H](CCCCN)C(=O)N[C@H](C(=O)N[C@@H](CC(C)C)C(=O)N[C@@H](CC(C)C)C(N)=O)[C@@H](C)O)N(C)C(=O)[C@H](CCCNC(=N)N)NC(=O)[C@H](CCCCN)NC(=O)[C@H](CC(C)C)NC(=O)[C@H](CC(C)C)NC(=O)CN (H-GLLKR[NMeI]KTLL-NH2)	MIC	> 128 µM
CC[C@H](C)[C@H](NC(=O)[C@H](CCCNC(=N)N)NC(=O)[C@H](CCCCN)NC(=O)[C@H](CC(C)C)NC(=O)[C@H](CC(C)C)N(C)C(=O)CN)C(=O)N[C@@H](CCCCN)C(=O)N[C@H](C(=O)N[C@@H](CC(C)C)C(=O)N[C@@H](CC(C)C)C(N)=O)[C@@H](C)O (H-G[NMeL]LKRIKTLL-NH2)	MIC	> 128 µM
